experiment: Solubility Determination Assay in PBS pH 1.6 and pH 7.4; type: physicochemical; settings: PBS buffer, aqueous buffer, kinetic from dmso stock, PBS pH 7.4, 25° C., read-out: Aq. Solubility at pH = 7.4
readout: solubility at 2 h

>>> print(df.to_string())
                                   compound            readout  meas_value
0  C[C@@H](CO)n1cnc2c(-c3cnn(C)c3)nc(-c3ccc(C4CC4)nc3)cc2c1=O  solubility at 2 h      ≥ 1 µM
1  C[C@@H](CO)n1cnc2c(-c3cccc(F)c3)nc(-c3ccc(C(F)(F)F)nc3)cc2c1=O  solubility at 2 h      ≥ 1 µM
2  O=c1c2cc(-c3ccc(C(F)(F)F)nc3)nc(-c3cccnc3)c2ncn1[C@H]1COC[C@@H]1O  solubility at 2 h      ≥ 1 µM

Form field solubility at 2 h, entry `C[C@H](n1cnc2c(-c3cccnc3)nc(-c3cccnc3)cc2c1=O)C(C)(C)O` : ≥ 1 µM

Form field solubility at 2 h, entry `C[C@@H](CO)n1cnc2c(-c3cnn(C)c3)nc(-c3ccc(C(F)(F)F)nc3)cc2c1=O` : ≥ 1 µM

Form field solubility at 2 h, entry `C[C@@H](n1cnc2c(-c3cccnc3)nc(-c3ccc(Cl)cc3)cc2c1=O)C(C)(C)O` : < 0.1 µM

Form field solubility at 2 h, entry `Cn1cc(-c2nc(-c3ccc(Cl)cc3)cc3c(=O)n([C@H]4COC[C@H]4O)cnc23)cn1` : < 0.1 µM

Form field solubility at 2 h, entry `Cn1cc(-c2nc(-c3ccc(C(F)(F)F)nc3)cc3c(=O)n(C[C@H](O)C(F)(F)F)cnc23)cn1` : < 0.1 µM

Form field solubility at 2 h, entry `O=c1c2cc(-c3ccc(C(F)(F)F)cn3)nc(-c3cccnc3)c2ncn1C[C@@H](O)C(F)(F)F` : ≥ 1 µM

Form field solubility at 2 h, entry `C[C@@H](CO)n1cnc2c(-n3ccnc3)nc(-c3ccc(C(F)(F)F)cn3)cc2c1=O` : ≥ 1 µM

====

Target: AHR (Homo sapiens)
Construct: other cell line with a DRE-luciferase reporter stably transfected; endogenous in cells
Sequence (P35869 11-848): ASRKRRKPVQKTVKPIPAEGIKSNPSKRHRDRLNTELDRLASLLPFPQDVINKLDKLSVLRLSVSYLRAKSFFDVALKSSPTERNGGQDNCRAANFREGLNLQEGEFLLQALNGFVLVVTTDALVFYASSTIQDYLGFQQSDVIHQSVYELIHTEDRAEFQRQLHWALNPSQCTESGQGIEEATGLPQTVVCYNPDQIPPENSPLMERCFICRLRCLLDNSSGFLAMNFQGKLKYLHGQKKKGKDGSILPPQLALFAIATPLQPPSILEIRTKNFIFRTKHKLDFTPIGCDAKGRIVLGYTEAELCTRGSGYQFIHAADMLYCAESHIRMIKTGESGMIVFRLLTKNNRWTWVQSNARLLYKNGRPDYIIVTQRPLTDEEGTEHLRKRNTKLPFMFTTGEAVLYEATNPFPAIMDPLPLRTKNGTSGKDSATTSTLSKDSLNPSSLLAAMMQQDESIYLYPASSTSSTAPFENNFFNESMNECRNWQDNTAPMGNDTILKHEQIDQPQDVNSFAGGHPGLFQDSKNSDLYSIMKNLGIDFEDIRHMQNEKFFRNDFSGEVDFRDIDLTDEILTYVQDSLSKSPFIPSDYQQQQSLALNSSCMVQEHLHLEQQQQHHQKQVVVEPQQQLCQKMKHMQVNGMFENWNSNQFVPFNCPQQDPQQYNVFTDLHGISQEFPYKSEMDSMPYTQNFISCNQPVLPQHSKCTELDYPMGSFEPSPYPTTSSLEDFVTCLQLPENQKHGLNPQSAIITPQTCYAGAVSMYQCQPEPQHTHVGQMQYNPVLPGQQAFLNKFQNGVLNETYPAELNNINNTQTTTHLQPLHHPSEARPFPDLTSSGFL
Test: DRE-Luciferase Reporter Assay, HepG2 AhR-Lucia reporter cells
Conditions: with AHR activating ligand at EC50, read-out: HepG2-Luc IC50
pIC50: −log10 of the molar value.
Measured pIC50 values are reported for all entries that follow.

                                   compound     measured_target    meas_value
0  O=c1c2cc(-c3ccc(C(F)(F)F)cn3)nc(-c3cccnc3)c2ncn1C[C@@H](O)C(F)(F)F  AHR (Homo sapiens)        > 7.00
1  C[C@@H](CO)n1cnc2c(-c3cccnc3)nc(-c3cnsc3)cc2c1=O  AHR (Homo sapiens)  6.30 to 7.00
2  C[C@@H](CO)n1cnc2c(-c3cccnc3)nc(-c3ccc(C(F)(F)F)nc3)cc2c1=O  AHR (Homo sapiens)        > 7.00
3  O=c1c2cc(-c3ccc(Cl)cc3)nc(-c3cccnc3)c2ncn1[C@@H]1COC[C@@H]1O (stereo in doubt)  AHR (Homo sapiens)        > 7.00
4  Cc1cc(C(F)(F)F)ncc1-c1cc2c(=O)n([C@@H](C)CO)cnc2c(-c2cccnc2)n1  AHR (Homo sapiens)  6.30 to 7.00
5  O=c1c2cc(-c3ccc(Cl)cc3)nc(-c3cccnc3)c2ncn1C1COCC1O (racemic) [Compound 32]  AHR (Homo sapiens)        > 7.00

Form field pIC50, entry `O=c1c2cc(-c3ccc(C4CC4)nc3)nc(-c3cccnc3)c2ncn1C[C@@H](O)C(F)(F)F` : > 7.00

Form field pIC50, entry `Cn1cc(-c2nc(-c3ccc(C4CC4)nc3)cc3c(=O)n(CC(C)(C)O)cnc23)cn1` : > 7.00

====

assay: In vivo PK study in male CD1 mice; conditions: male, CD1, mouse, plasma; mice, 10 mg/kg PO; read-out: T1/2 Mean (converted)
readout: half-life (h)

>>> df
                                   compound    readout  units_label  meas_value
0  C[C@@H](CO)n1cnc2c(-c3cccnc3)nc(-c3ccc(C(F)(F)F)cn3)cc2c1=O  half-life            h           8

a: Cc1ccc(-c2cc3c(=O)n([C@@H](C)CO)cnc3c(-c3cccnc3)n2)cc1
b: CC(C)(O)Cn1cnc2c(-c3cccnc3)nc(-c3ccc(Cl)cc3)cc2c1=O
c: CC(C)(O)Cn1cnc2c(-c3cccnc3)nc(-c3ccc(C(F)(F)F)cn3)cc2c1=O
Prompt: Your job: order these 3 records by half-life, ascending. Lab note: final answer is the ordered label list.
Response: a, b, c

====

assay: Solubility Determination Assay in PBS pH 1.6 and pH 7.4; format: physicochemical; conditions: PBS buffer, aqueous buffer, kinetic from dmso stock, PBS pH 1.6, 25° C., read-out: Aq. Solubility at pH = 1.6
Measured solubility at 2 h values are reported for all entries that follow.

                                   molecule   meas_value
0  Cn1cc(-c2nc(-c3ccc(C(F)(F)F)nc3)cc3c(=O)n([C@H]4COC[C@@H]4O)cnc23)cn1  0.1 to 1 µM
1  O=c1c2cc(-c3ccc(C(F)(F)F)cn3)nc(-c3cccnc3)c2ncn1[C@H]1COC[C@H]1O       ≥ 1 µM
2  C[C@@H](CO)n1cnc2c(-c3cnn(C)c3)nc(-c3ccc(C(F)(F)F)nc3)cc2c1=O       ≥ 1 µM
3  Cc1ccc(-c2cc3c(=O)n([C@@H](C)CO)cnc3c(-c3cccnc3)n2)cc1       ≥ 1 µM
4  C[C@@H](CO)n1cnc2c(-c3cnsc3)nc(-c3ccc(Cl)cc3)cc2c1=O     < 0.1 µM
5  Cn1cc(-c2nc(-c3ccc(C4CC4)nc3)cc3c(=O)n(C[C@H](O)C(F)(F)F)cnc23)cn1       ≥ 1 µM

Form field solubility at 2 h, entry `C[C@@H](CO)n1cnc2c(-c3cccnc3)nc(-c3cnc(C(F)(F)F)nc3)cc2c1=O` : ≥ 1 µM

Form field solubility at 2 h, entry `Cn1cc(-c2nc(-c3ccc(C(F)(F)F)cn3)cc3c(=O)n([C@H]4COC[C@H]4O)cnc23)cn1` : 0.1 to 1 µM

====

Measured half-life values are reported for all entries that follow.
assay: In vivo PK study in male Sprague Dawley rats; details: male, Sprague Dawley, rat, plasma; rats, PO, dosage of 3 mg/kg; read-out: T1/2 Mean (converted)
Write the value in h as a bare number.

                                   compound    readout  units_label  meas_value
0  C[C@@H](CO)n1cnc2c(-c3cccnc3)nc(-c3ccc(C(F)(F)F)cn3)cc2c1=O  half-life            h        5.73

Switching to the query record.
Form field half-life, entry `O=c1c2cc(-c3ccc(C(F)(F)F)nc3)nc(-c3cccnc3)c2ncn1[C@@H]1COC[C@H]1O` : 2.53

====

test: Solubility Determination Assay in PBS pH 1.6 and pH 7.4; assay type: physicochemical; conditions: PBS buffer, aqueous buffer, kinetic from dmso stock, PBS pH 1.6, 25° C., read-out: Aq. Solubility at pH = 1.6
readout: solubility at 2 h

                                   compound  meas_value
0  CNC(=O)[C@H](C)n1cnc2c(-c3cccnc3)nc(-c3ccc(C(F)(F)F)nc3)cc2c1=O [Compound 156]      ≥ 1 µM

Switching to the query record.
Form field solubility at 2 h, entry C[C@H](O)Cn1cnc2c(-c3cnn(C)c3)nc(-c3ccc(C(F)(F)F)nc3)cc2c1=O [Compound 109] : 0.1 to 1 µM
